Where these numbers come from: patent US9096596B2

- TARGET_OR_SYSTEM: rat P2X7 (Rattus norvegicus (Rat), UniProt Q64663)
- Sequence (Q64663 whole entry): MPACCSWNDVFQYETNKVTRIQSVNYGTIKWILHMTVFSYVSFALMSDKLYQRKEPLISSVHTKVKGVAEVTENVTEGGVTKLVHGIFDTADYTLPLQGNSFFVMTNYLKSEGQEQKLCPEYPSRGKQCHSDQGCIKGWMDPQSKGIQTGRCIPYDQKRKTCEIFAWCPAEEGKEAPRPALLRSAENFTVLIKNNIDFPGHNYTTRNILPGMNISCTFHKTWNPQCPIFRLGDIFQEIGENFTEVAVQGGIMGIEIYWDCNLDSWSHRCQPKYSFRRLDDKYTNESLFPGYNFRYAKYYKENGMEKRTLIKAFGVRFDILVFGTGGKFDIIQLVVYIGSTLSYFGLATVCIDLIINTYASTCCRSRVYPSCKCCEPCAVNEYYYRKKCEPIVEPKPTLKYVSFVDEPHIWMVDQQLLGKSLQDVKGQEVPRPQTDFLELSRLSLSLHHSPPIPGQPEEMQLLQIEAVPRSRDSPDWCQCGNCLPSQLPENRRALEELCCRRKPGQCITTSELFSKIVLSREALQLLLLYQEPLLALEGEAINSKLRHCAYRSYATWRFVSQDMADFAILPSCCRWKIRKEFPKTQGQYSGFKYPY
- ASSAY_COMMENT: Radioligand binding, rat P2X7-1321N1 cell membranes, tracer tritiated A-804598
RECORDED_ENDPOINT: Ki (nM)
Write the value in nM as a bare number.

IN: # input molecule: COCCn1ccc(-c2nc(C)nc3c2C[C@@H](C)N(C(=O)c2cccc(C(F)(F)F)c2Cl)C3)n1 (single isomer, unassigned) [Example 128] ; wanted: its Ki
OUT: 3

IN: # input molecule: Cc1nc2c(c(-c3ccn(CCF)n3)n1)C[C@@H](C)N(C(=O)c1cccc(C(F)(F)F)c1Cl)C2 (single isomer, unassigned) [Example 124] ; wanted: its Ki
OUT: 3.5

###

- TARGET_OR_SYSTEM: UniProt Q64663
- ASSAY_COMMENT: Ca2+ flux (FLIPR) in 1321N1 cells expressing recombinant rat P2X7 channel
- PROTOCOL_CONDITIONS: 250 μM BzATP, Calcium-4 dye
pIC50: −log10 of the molar value.
Threshold check on pIC50: at or above 6 gives Y, strictly below gives N.

IN: Confirm if pIC50 reported for the compound `O=C(c1cccc(Cl)c1Cl)N1CCc2c(ncnc2-c2ccccn2)C1` is 6 or above.
OUT: N

IN: Confirm if pIC50 reported for the compound Cc1nc2c(c(-c3ccn[nH]3)n1)C[C@H](C)N(C(=O)c1ccc(F)cc1Cl)C2 (single isomer, unassigned) is 6 or above.
OUT: N

IN: Confirm if pIC50 reported for the compound `O=C(c1cc(F)c(F)cc1Cl)N1CCc2c(ncnc2-c2cnccn2)C1` is 6 or above.
OUT: N

IN: Confirm if pIC50 reported for the compound Cc1nc2c(c(-c3ccn[nH]3)n1)CC(C)N(C(=O)c1cccc(C#N)c1C)C2 (centres unmarked) is 6 or above.
OUT: N

IN: Confirm if pIC50 reported for the compound Cc1nc2c(c(-c3ccn[nH]3)n1)CC(C)N(C(=O)c1ccc(F)cc1F)C2 (centres unmarked) is 6 or above.
OUT: Y

New cases:
IN: Confirm if pIC50 reported for the compound `O=C(c1cccc(C(F)(F)F)c1Cl)N1CCc2c(ncnc2-c2cscn2)C1` is 6 or above.
OUT: Y

IN: Confirm if pIC50 reported for the compound `Cc1nc2c(c(-c3ccccc3)n1)CCN(C(=O)c1cccc(Cl)c1Cl)C2` is 6 or above.
OUT: N

IN: Confirm if pIC50 reported for the compound `Cc1nc2c(c(-n3nccn3)n1)CCN(C(=O)c1cccc(C(F)(F)F)c1Cl)C2` is 6 or above.
OUT: Y

IN: Confirm if pIC50 reported for the compound CC1Cc2c(nc(N)nc2-c2ccn[nH]2)CN1C(=O)c1cccc(C(F)(F)F)c1Cl (centres unmarked) is 6 or above.
OUT: Y

IN: Confirm if pIC50 reported for the compound `Cc1nc2c(c(-n3ccnn3)n1)CCN(C(=O)c1cccc(C(F)(F)F)c1Cl)C2` is 6 or above.
OUT: N

IN: Confirm if pIC50 reported for the compound COCCn1ccc(-c2nc(C)nc3c2C[C@H](C)N(C(=O)c2cccc(C(F)(F)F)c2Cl)C3)n1 (single isomer, unassigned) is 6 or above.
OUT: N

IN: Confirm if pIC50 reported for the compound Cc1nc2c(c(-c3ccn[nH]3)n1)CC(C)N(C(=O)c1cccc(C)c1F)C2 (centres unmarked) is 6 or above.
OUT: N

IN: Confirm if pIC50 reported for the compound `Cc1nc2c(c(-c3ccn[nH]3)n1)CCN(C(=O)c1cccc(Cl)c1Cl)C2` is 6 or above.
OUT: N

IN: Confirm if pIC50 reported for the compound Cc1ccc(C(=O)N2Cc3nc(C)nc(-c4ccn[nH]4)c3CC2C)c(C)c1 (centres unmarked) is 6 or above.
OUT: N

IN: Confirm if pIC50 reported for the compound `O=C(c1cccc(C(F)(F)F)c1Cl)N1CCc2c(ncnc2-n2cncn2)C1` is 6 or above.
OUT: N

IN: Confirm if pIC50 reported for the compound Cc1nc2c(c(-c3ccn[nH]3)n1)CC(C)N(C(=O)c1ccccc1Cl)C2 (centres unmarked) is 6 or above.
OUT: N

###

- TARGET_OR_SYSTEM: P2X7 (Homo sapiens (Human), UniProt Q99572)
- Sequence (Q99572 whole entry): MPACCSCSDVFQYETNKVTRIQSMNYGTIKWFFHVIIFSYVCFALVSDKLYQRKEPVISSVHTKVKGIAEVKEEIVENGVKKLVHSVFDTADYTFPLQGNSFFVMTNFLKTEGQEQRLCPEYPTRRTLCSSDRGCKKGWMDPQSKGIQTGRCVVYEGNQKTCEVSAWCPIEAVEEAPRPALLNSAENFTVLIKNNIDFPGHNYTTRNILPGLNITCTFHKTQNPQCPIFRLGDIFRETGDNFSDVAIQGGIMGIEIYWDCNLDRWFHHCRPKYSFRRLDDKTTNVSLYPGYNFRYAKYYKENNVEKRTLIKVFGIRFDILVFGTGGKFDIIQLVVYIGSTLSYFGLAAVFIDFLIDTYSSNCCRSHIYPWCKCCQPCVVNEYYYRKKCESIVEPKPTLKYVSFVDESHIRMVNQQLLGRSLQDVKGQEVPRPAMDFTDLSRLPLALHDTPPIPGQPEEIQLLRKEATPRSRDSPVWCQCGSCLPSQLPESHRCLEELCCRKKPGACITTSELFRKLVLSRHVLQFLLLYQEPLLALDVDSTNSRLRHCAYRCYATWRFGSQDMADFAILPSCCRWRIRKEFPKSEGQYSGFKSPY
- ASSAY_COMMENT: Ca2+ flux (FLIPR) in 1321N1 cells expressing recombinant human P2X7 channel
- Type: cell-based
- PROTOCOL_CONDITIONS: 250 μM BzATP, Calcium-4 dye
RECORDED_ENDPOINT: IC50 (nM)
Write the value in nM as a bare number.

IN: # input compound: O=C(c1cccc(Cl)c1Cl)N1CCc2c(ncnc2-c2ccn[nH]2)C1 [Example 7] ; wanted: its IC50
OUT: 20.7

IN: # input compound: O=C(c1cccc(Cl)c1Cl)N1CCc2c(ncnc2-c2cnccn2)C1 [Example 14] ; wanted: its IC50
OUT: 25.1

IN: # input compound: Cc1nc2c(c(-c3ccn[nH]3)n1)CC(C)N(C(=O)c1ccc(C#N)cc1C)C2 (centres unmarked) [Example 3] ; wanted: its IC50
OUT: 798

IN: # input compound: Cc1nc2c(c(-c3ccn[nH]3)n1)CC(C)N(C(=O)c1ccc(Cl)cc1)C2 (centres unmarked) [Example 96] ; wanted: its IC50
OUT: 50

IN: # input compound: Cc1nc2c(c(-c3ccn(CCF)n3)n1)C[C@@H](C)N(C(=O)c1cccc(C(F)(F)F)c1Cl)C2 (single isomer, unassigned) [Example 124] ; wanted: its IC50
OUT: 31

New cases:
IN: # input compound: O=C(c1cccc(Cl)c1Cl)N1CCc2c(ncnc2-n2cccn2)C1 [Example 22] ; wanted: its IC50
OUT: 198

IN: # input compound: Cc1nc2c(c(-c3ccn[nH]3)n1)CC(C)N(C(=O)c1cccc(C(F)(F)F)c1C)C2 (centres unmarked) [Example 77] ; wanted: its IC50
OUT: 63.1

###

- TARGET_OR_SYSTEM: P2X7 (Homo sapiens (Human))
- ASSAY_COMMENT: Radioligand binding, human P2X7-1321N1 cell membranes, tracer tritiated A-804598
- PROTOCOL_CONDITIONS: human P2X7-1321N1 membranes; 1 hour at 4° C.; IC50 corrected for tracer concentration and affinity
pKi: −log10 of the molar value.
Threshold check on pKi: at or above 7 gives Condition met, strictly below gives Condition not met.

IN: Confirm if pKi reported for the compound `O=C(c1cccc(Cl)c1Cl)N1CCc2c(ncnc2-n2nccn2)C1` is 7 or above.
OUT: Condition met

IN: Confirm if pKi reported for the compound `Cc1nc2c(c(-n3ccnn3)n1)CCN(C(=O)c1cccc(C(F)(F)F)c1Cl)C2` is 7 or above.
OUT: Condition not met

IN: Confirm if pKi reported for the compound `O=C(c1cccc(C(F)(F)F)c1Cl)N1CCc2c(ncnc2-c2cscn2)C1` is 7 or above.
OUT: Condition met

IN: Confirm if pKi reported for the compound `O=C(c1cccc(C(F)(F)F)c1Cl)N1CCc2c(ncnc2-n2cnnc2)C1` is 7 or above.
OUT: Condition met

Please turn your attention to the following entry.
IN: Confirm if pKi reported for the compound `Cc1nc2c(c(-c3ccccc3)n1)CCN(C(=O)c1cccc(Cl)c1Cl)C2` is 7 or above.
OUT: Condition not met

###

- TARGET_OR_SYSTEM: rat P2X7 (Rattus norvegicus (Rat))
- ASSAY_COMMENT: Ca2+ flux (FLIPR) in 1321N1 cells expressing recombinant rat P2X7 channel
- PROTOCOL_CONDITIONS: 250 μM BzATP, Calcium-4 dye
RECORDED_ENDPOINT: pIC50
Value format note: pIC50 is -log10 of concentration (mol/L); just state the number.

IN: Any idea what pIC50 came out for CC1Cc2c(ncnc2-c2ccn[nH]2)CN1C(=O)c1cccc(C(F)(F)F)c1Cl (stereo not shown) on rat P2X7 (Rattus norvegicus (Rat))?
OUT: 8.25

IN: Any idea what pIC50 came out for `Cc1nc2c(c(-c3[nH]ncc3C(F)(F)F)n1)CCN(C(=O)c1cccc(C(F)(F)F)c1Cl)C2` on rat P2X7 (Rattus norvegicus (Rat))?
OUT: 7.60

IN: Any idea what pIC50 came out for Cc1nc2c(c(-c3ccn[nH]3)n1)CC(C)N(C(=O)c1ccc(Cl)cc1)C2 (stereo not shown) on rat P2X7 (Rattus norvegicus (Rat))?
OUT: 5.73

IN: Any idea what pIC50 came out for Cc1nc2c(c(-c3ccnn3C)n1)CC(C)N(C(=O)c1cccc(C(F)(F)F)c1Cl)C2 (stereo not shown) on rat P2X7 (Rattus norvegicus (Rat))?
OUT: 7.75

IN: Any idea what pIC50 came out for `O=C(c1cccc(Cl)c1Cl)N1CCc2c(ncnc2-n2nccn2)C1` on rat P2X7 (Rattus norvegicus (Rat))?
OUT: 5.61

IN: Any idea what pIC50 came out for Cc1nc2c(c(-c3ccn[nH]3)n1)CC(C)N(C(=O)c1cccc(C)c1C)C2 (stereo not shown) on rat P2X7 (Rattus norvegicus (Rat))?
OUT: 5.15

IN: Any idea what pIC50 came out for `Cc1nc2c(c(-c3ccn[nH]3)n1)CCN(C(=O)c1ccc(Cl)c(F)c1Cl)C2` on rat P2X7 (Rattus norvegicus (Rat))?
OUT: 5.72

IN: Any idea what pIC50 came out for Cc1nc2c(c(-c3ccn[nH]3)n1)C[C@@H](C)N(C(=O)c1ccc(F)cc1Cl)C2 (single isomer, unassigned) on rat P2X7 (Rattus norvegicus (Rat))?
OUT: 6.88

New cases:
IN: Any idea what pIC50 came out for `Cn1ccc(-c2ncnc3c2CCN(C(=O)c2cccc(C(F)(F)F)c2Cl)C3)n1` on rat P2X7 (Rattus norvegicus (Rat))?
OUT: 8.00

IN: Any idea what pIC50 came out for `O=C(c1cccc(C(F)(F)F)c1Cl)N1CCc2c(ncnc2-c2ccccc2)C1` on rat P2X7 (Rattus norvegicus (Rat))?
OUT: 5.90
